The origin of these recorded values is the DeepSol protein solubility set.

Assay: soluble on expression in E. coli; label from the status in PepcDB or PDB records
QUANTITY MEASURED: soluble on expression in E. coli

seq_string=GSHMTGPVTKEDLGRATWTFLHTLAAQYPEKPTRQQKKDVKELMTILSRMYPCRECADHFKEILRSNPAQAGSQEEFSQWLCHVHNTVNRSLGKLVFPCERVDARWGKLECEQKSCDLHGTSMDF measurement=soluble
seq_string=MAHHHHHHMQQASAAASDEWRTKFGGGGASHDWQASKGNFTNQEFESYWGQKWPNWLKTEKATYPNAANKKWLEQNPPPKQGPAQAKTAKQLAVYAEEAAALARTYTEGITAAHGRELKAIKTALRAALYGTNKKTARAFRR measurement=soluble
seq_string=MSLSVTDVAGRTVSFDAQPKRILLAEGRALMATSVLNKENPAKDVVAIGADLHKAAPSFESALRQARPQVSKLPMIGSIAKGDVTVENMLSFKPDAVVMTLDQKEAAEKAGFLQKMDQAKLPYVFIDFRRKPLENTTKSMATLGKIFGGKAISRAKEFNKFYQSKVDDVSRRVSRESDKPRTFLWRAAGLKDCCSTYANLNLGDVITAAGGHNLGADLLRTSAGDVTPEKIVATQPEHIIATGGSWAKDPKKPESVPHVELGYNVTDDDAQRTLAGLLKTPGFSLLKAPKDGKLHAVYHQFYDSPFNVFALEQFAAWQHPKQFKGVDLTKDFAKFHEDYLPFGYRGVFFVTLKEGHHHHHH measurement=soluble

* * *

Assay: soluble on expression in E. coli; label from the status in PepcDB or PDB records
QUANTITY MEASURED: soluble on expression in E. coli

seq_string=NSYVFDLPHNQHKLTKFAHKGILFNSVHLERDGTLKFPQLKQSKQKPAVSSELKTAIKRIKAGYKKVKPNYKKRQKQQIAELFAKRKQRRSWKNF measurement="not soluble"
seq_string=NPHMWWLQDADPENNSRQASPSQESINQLVYMGFDTVVAEAALRVFGGNVQLAAQTLAHHGGSLPPDLQF measurement=soluble
seq_string=GDTKEQRILNHVLQHAEPGNAQSVLEAIDTYCEQKEWAMNVGDKKGKIVDAVIQEHQPSVLLELGAYCGYSAVRMARLLSPGARLITIEINPDCAAITQRMVDFAGMKDKVTLVVGASQDIIPQLKKKYDVDTLDMVFLDHWKDRYLPDTLLLEECGLLRKGTVLLADNVICPGAPDFLAHVRGSSCFECTHYQSFLEYREVVDGLEKAIYKGP measurement=soluble
seq_string=MSKLKKKEYEQELKKLQVELVKLQEWVKHKGLKVVVLFEGRDAAGKGGVIKRITEKLNHRVCRVVALPAPTEKEKTQWYFQRYVAHLPSAGEIVLFDRSWYNRAGVEKVMGFCTPDEYEEFLRSCPEFERMLQRSGIILLKYWFSVSDEEQEKRFLGRINTPIKRWKFSPMDLESRHRWAEYSEAKDKMFAYTDTKNCPWWVVPSDSKQKARLNCISHLLSQIEYKALEYPPIELPEINKEGYVRAPIDDQTFVPDKY measurement="not soluble"
seq_string=MGSDKIHHHHHHMENIAQWVGIDVSKATLDVYIRPLGKAMIVANTESEISNLVKLLLSYSLNLIVLEATGGLETELVIQLQAALLPVALINPRQGRDFAKATGKLAKTDAIDAQILAHFGEAMKPQVLAIQSETARQLSELISRRRQLVEMQTAEKNRRSLTRGQALADIEAHIEYLEEHLKQLNQKIAELTQNNLQWIDKVNLLKSTPGIGQVISTTLVSDLPELGQLTAKQISRLVGVAPINHDSGQHKGKRMINGGRAHVRATLYMGAVVAMVHNPVIKAFYERLIERGKSKKLALTACVHKMLVILNAMVRDNLPWRVTENLQPIANA measurement="not soluble"

# input sequence: `MSLNVVGYVRLSRDEDKENYSSIITQKNIIEEYSKNKNWTVNRIYVDDNCSGYTFERPEFLKMMYEIKERKIDVIVAKDLSRIGRNNGKVLVFIDKLKEKGIRLILVEEATGGLDLLEDNYDILGIKTWYNEMYVKDISRKIRASMHLKQKKGKEGHHHHHH` ; wanted: its soluble on expression in E. coli
soluble

# input sequence: `MAHHHHHHMRNGPKVLIALGNELKRGAASHQCKGDVARMYVNYLRQRYSMDEWNHVSNVNSFICEKNNIILIKPVTSLEKNSGLAIKNILNYLNCEDLKNVCIILPDLYRSIGKFKYKSYTKIYEKLGPDFYNILNSNIINNVLCNHFLQLCIGVSNYPNETKNAVAIALQECLSDGELKKIFKTFQLAEEYFHKKIMNGKVITTNYIHFKEKYPAMEPQKSFRRSTASRRYILDVYRHMYK` ; wanted: its soluble on expression in E. coli
not soluble

# input sequence: `MKHDHFIVQSPAAPAQQLLLLFHGVGDNPVSMGQIGSWFAPQFPDALIVSIGGVEPCGPNGRQWFSLQGVTEENRQQRIDAIMPTFIEIVRYWQEKSGVSPLATALIGFSQGAIMSLESIKAAPDLASRVIAFNGRYATLPETATTATTIHLIHGGEDRVIDLAWAVSAEEALQQAGGDVTLDIVDDLGHAIDDRSMQLAIERLRYTVPKHY` ; wanted: its soluble on expression in E. coli
not soluble
